# Tested on: CP286
# PROTOCOL: qHTS profiling for inhibitors of Plasmodium falciparum proliferation (AID 504749); further: nearly all actives have a fitted effect of over 60% in size
# DETAILS: P. falciparum in erythrocytes, SYBR Green DNA, 72 h; series mostly up to 12.8 µM
Records with an inconclusive call do not appear. Calls of active or inactive are those of the source. The call rests on the fitted dose curve; in most records, active means well fitted inhibition curve with a large enough effect; inconclusive means small, poorly fitted or top-dose-only effect; inactive means flat fitted curve, though single readings scatter.
Outcome codes: 1 for active, -1 for inactive

- COMPOUND: "O=C1O[C@@H]([C@@H](O)CO)[C@@H](O)[C@H]1O"
  ASSAY SYSTEM: "CP286"
  LABEL: -1
- COMPOUND: "CC(=O)[C@@]1(O)CC[C@H]2[C@H]3C[C@@H](C)C4=CC(=O)C=C[C@]4(C)[C@@]3(F)[C@@H](O)C[C@]21C"
  ASSAY SYSTEM: "CP286"
  LABEL: -1
- COMPOUND: "COC1C=CO[C@@]2(C)Oc3c(C)c(O)c4c(O)c(c(C=NN5CCN(C)CC5)c(O)c4c3C2=O)NC(=O)/C(C)=C\\C=CC(C)C(O)[C@@H](C)C(O)C(C)[C@H](OC(C)=O)C1C (stereo partly specified)"
  ASSAY SYSTEM: "CP286"
  LABEL: 1
- COMPOUND: "COc1c(O[C@H]2O[C@@H](CO)[C@@H](O)[C@@H](O)[C@@H]2O)cc2c(c1OC)-c1ccc(SC)c(=O)cc1[C@H](NC(C)=O)CC2"
  ASSAY SYSTEM: "CP286"
  LABEL: -1
- COMPOUND: "C[C@H](C(=O)O)c1cccc(Oc2ccccc2)c1"
  ASSAY SYSTEM: "CP286"
  LABEL: -1
- COMPOUND: "Cc1ncc([N+](=O)[O-])n1C[C@H](O)CCl"
  ASSAY SYSTEM: "CP286"
  LABEL: -1

====

# ASSAY SYSTEM: Rap guanine nucleotide exchange factor 3 (Homo sapiens)
# PROTOCOL: Counterscreen qHTS for antagonist of cAMP-regulated guanine nucleotide exchange factor 3 (EPAC1) (AID 1645888);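 further: fluorescence loss as bound BODIPY-GDP is released from Rap1B; % of control where 0% means no effect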
# DETAILS: Rap1B-BODIPY-GDP nucleotide exchange, fluorescence; series mostly up to 154 µM
Records with an inconclusive call do not appear. Calls of active or inactive are those of the source. The call rests on the fitted dose curve; in most records, active means well fitted inhibition curve with a large enough effect; inconclusive means small, poorly fitted or top-dose-only effect; inactive means no such curve, though single readings can be large or run the other way.
TEST READOUT: activity change, negative = inhibition

- MOLECULE: "COc1cc(Nc2nc(SCc3cccc(Cl)c3)nc3ccccc23)cc(OC)c1"
  TEST READOUT: "activity change, negative = inhibition"
  OBSERVED: "inactive"
- MOLECULE: "Nc1c(C(=O)c2ccccc2)sc2nsc(SCCN3CCCC3)c12"
  TEST READOUT: "activity change, negative = inhibition"
  OBSERVED: "inactive"
- MOLECULE: "COc1ccc(CN2C(=O)c3cccnc3C2Nc2cc(Cl)c(OC)cc2OC)cc1 (centres undefined)"
  TEST READOUT: "activity change, negative = inhibition"
  OBSERVED: "inactive"
- MOLECULE: "O=C(CN1C(=O)N/C(=C\\c2ccccc2OCc2ccc(C(=O)O)cc2)C1=O)Nc1ccccc1F"
  TEST READOUT: "activity change, negative = inhibition"
  OBSERVED: "-13.4% [at 30.8 µM] (inactive)"
- MOLECULE: "Nc1ccc2c3c(cccc13)-c1ccccc1-2"
  TEST READOUT: "activity change, negative = inhibition"
  OBSERVED: "inactive"
- MOLECULE: "Cc1ccc(C(NC(=O)C(C)C)c2cc([N+](=O)[O-])c3cccnc3c2O)cc1 (centres undefined)"
  TEST READOUT: "activity change, negative = inhibition"
  OBSERVED: "-17.2% [at 30.8 µM] (inactive)"
- MOLECULE: "COc1cc(/C=C2\\SC(=S)N(NS(=O)(=O)c3ccc(C)cc3)C2=O)ccc1O"
  TEST READOUT: "activity change, negative = inhibition"
  OBSERVED: "-2.35% [at 30.8 µM] (inactive)"
- MOLECULE: "Cc1ccc(C2=N/C(=C\\c3c(C)nn(-c4ccccc4)c3N3CCCC3)C(=O)O2)cc1"
  TEST READOUT: "activity change, negative = inhibition"
  OBSERVED: "inactive"
- MOLECULE: "COC(=O)c1ccc(OC(=O)c2ccc(OC)cc2)c(OC)c1"
  TEST READOUT: "activity change, negative = inhibition"
  OBSERVED: "-8.27% [at 30.8 µM] (inactive)"
- MOLECULE: "O=S(=O)(NCc1cn2ccsc2n1)c1cccs1"
  TEST READOUT: "activity change, negative = inhibition"
  OBSERVED: "-13.2% [at 30.8 µM] (inactive)"
- MOLECULE: "Cn1c2ccccc2c2cc(/C=N/NC(=O)c3cc(O)ccc3O)ccc21"
  TEST READOUT: "activity change, negative = inhibition"
  OBSERVED: "-0.77% [at 30.8 µM] (inactive)"
- MOLECULE: "O=C1NC(=Nc2ccccc2Cl)S/C1=C\\c1cccc([N+](=O)[O-])c1O"
  TEST READOUT: "activity change, negative = inhibition"
  OBSERVED: "inactive"
- MOLECULE: "Clc1ccc(CSc2nnc(-c3ccncc3)s2)cc1"
  TEST READOUT: "activity change, negative = inhibition"
  OBSERVED: "inactive"
- MOLECULE: "CNC(=O)c1c(NC(=O)C2=COCCO2)sc(C)c1C"
  TEST READOUT: "activity change, negative = inhibition"
  OBSERVED: "inactive"

====

# ASSAY SYSTEM: Cytochrome P450 1A2 (Homo sapiens) (UniProt P05177)
# Sequence (P05177 whole entry, looked up): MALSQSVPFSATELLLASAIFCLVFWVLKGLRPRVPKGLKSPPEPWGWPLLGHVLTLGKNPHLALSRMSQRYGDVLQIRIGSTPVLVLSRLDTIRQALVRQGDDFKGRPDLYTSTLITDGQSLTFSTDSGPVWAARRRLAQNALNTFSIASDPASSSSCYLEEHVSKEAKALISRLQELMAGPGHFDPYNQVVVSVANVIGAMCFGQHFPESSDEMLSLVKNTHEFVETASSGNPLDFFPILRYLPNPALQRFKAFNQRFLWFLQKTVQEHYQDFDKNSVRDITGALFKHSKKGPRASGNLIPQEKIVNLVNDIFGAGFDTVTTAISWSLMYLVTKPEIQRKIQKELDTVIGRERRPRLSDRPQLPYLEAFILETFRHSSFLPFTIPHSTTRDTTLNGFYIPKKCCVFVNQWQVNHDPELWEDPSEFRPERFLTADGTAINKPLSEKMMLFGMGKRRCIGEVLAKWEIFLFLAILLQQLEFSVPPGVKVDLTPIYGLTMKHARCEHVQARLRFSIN
# PROTOCOL: p450-cyp1a2 (AID 410)
# DETAILS: recombinant CYP1A2, luciferin-ME demethylation, luminescence; series mostly up to 25.6 µM
Results filed as inconclusive are left out. Activity calls are given as the source filed them. Calls come from the whole dose curve.
Outcome codes: active, inactive

- COMPOUND: "C#C[C@@]1(O)CC[C@@H]2[C@@H]3CCC4=CC(=O)CC[C@@H]4[C@H]3CC[C@]21C"
  LABEL: "inactive"
- COMPOUND: "COc1cc2nc(N3CCN(C(=O)[C@@H]4COc5ccccc5O4)CC3)nc(N)c2cc1OC"
  LABEL: "inactive"
- COMPOUND: "C[C@H]1CC[C@@H]2[C@@H](C)[C@H]3[C@H](C[C@H]4[C@@H]5CC=C6C[C@@H](O[C@]7(O[C@H]8O[C@@H](C)[C@@H](O)[C@@H](O)[C@@H]8O)C[C@@H](O[C@@H]8O[C@H](CO)[C@@H](O)[C@H](O)[C@@H]8O)[C@@H](O)[C@H](CO)O7)CC[C@]6(C)[C@H]5CC[C@@]34C)N2C1"
  LABEL: "inactive"
- COMPOUND: "COc1cc(N)c(Cl)cc1C(=O)N[C@H]1CCN(CCCOc2ccc(F)cc2)C[C@H]1OC"
  LABEL: "inactive"
- COMPOUND: "C[C@@H](Cc1cccc(C(F)(F)F)c1)NCCOC(=O)c1ccccc1"
  LABEL: "active"
- COMPOUND: "O=c1cc(-c2cccc(O)c2)oc2cc(O)ccc12"
  LABEL: "active"
- COMPOUND: "C=CCSC[C@@H]1Nc2cc(Cl)c(S(N)(=O)=O)cc2S(=O)(=O)N1"
  LABEL: "inactive"
- COMPOUND: "CC(=O)CC(=O)[C@@]1(O)CC[C@@H]2[C@@H]3C=C(C)C4=CC(=O)CC[C@@H]4[C@H]3CC[C@]21C"
  LABEL: "inactive"
- COMPOUND: "Cc1noc(C)c1-c1nc(Nc2ccncc2)c2ccccc2n1"
  LABEL: "active"
- COMPOUND: "CC1(C)S[C@@H]2[C@H](NC(=O)[C@@H](N)c3ccccc3)C(=O)N2[C@H]1C(=O)O[C@H]1OC(=O)c2ccccc21"
  LABEL: "inactive"
- COMPOUND: "CN1CCC[C@@H](CC2c3ccccc3Sc3ccccc32)C1"
  LABEL: "inactive"
- COMPOUND: "N#Cc1cccc(-c2cncnc2-n2ccnc2)c1"
  LABEL: "active"
- COMPOUND: "C[C@H](N)CCCC(C)(C)O"
  LABEL: "inactive"
- COMPOUND: "O=C1O[C@H](CN2CCOCC2)CN1/N=C\\c1ccc([N+](=O)[O-])o1"
  LABEL: "inactive"
- COMPOUND: "CN(C)/N=N\\c1nc[nH]c1C(N)=O"
  LABEL: "inactive"
- COMPOUND: "CC(=O)c1cc2ccccc2oc1=O"
  LABEL: "active"
- COMPOUND: "c1ccc2c3c([nH]c2c1)[C@@H]1[C@H]2CC[C@H]([C@H]4CCCN[C@H]42)N1CC3"
  LABEL: "active"
- COMPOUND: "COc1c(-c2ccccc2)oc2c(ccc3occc32)c1=O"
  LABEL: "active"
- COMPOUND: "C#C[C@]1(O)CC[C@@H]2[C@H]3CCC4=Cc5oncc5C[C@]4(C)[C@@H]3CC[C@@]21C"
  LABEL: "active"
- COMPOUND: "CC(C)NC[C@H]1CCc2cc(CO)c([N+](=O)[O-])cc2N1"
  LABEL: "active"
- COMPOUND: "CN[C@]1(C)[C@H]2CC[C@@H](C2)C1(C)C"
  LABEL: "inactive"
- COMPOUND: "CO[C@H]1[C@H](O[C@H]2O[C@@H](C)[C@@H](O[C@@H]3C[C@](C)(O)[C@H](OC(=O)CC(C)C)[C@H](C)O3)[C@@H](N(C)C)[C@@H]2O)[C@@H](CC=O)C[C@@H](C)[C@@H](O)/C=C\\C=C/C[C@@H](C)OC(=O)C[C@H]1OC(C)=O"
  LABEL: "inactive"
- COMPOUND: "Cc1c(O)c(=O)n(-c2ccccc2)n1C"
  LABEL: "inactive"
- COMPOUND: "CC(C)(C)CC(C)(C)c1ccc(OCOCCOCCO)c(Cc2cc(C(C)(C)CC(C)(C)C)cc(Cc3cc(C(C)(C)CC(C)(C)C)ccc3OCOCCOCCO)c2OCOCCOCCO)c1"
  LABEL: "inactive"
- COMPOUND: "C[C@H]1[C@@H](O)[C@@H](C)\\C=C/C=C\\C=C/C=C\\C=C/C=C\\C=C/[C@@H](O[C@H]2O[C@@H](C)[C@@H](O)[C@@H](N)[C@@H]2O)C[C@@H]2O[C@](O)(C[C@@H](O)C[C@@H](O)[C@@H](O)CC[C@@H](O)C[C@@H](O)CC(=O)O[C@H]1C)C[C@@H](O)[C@H]2C(=O)O (stereo in doubt)"
  LABEL: "inactive"
- COMPOUND: "CO[C@H]1[C@@H](OC(N)=O)[C@H](O)[C@@H](Oc2ccc3c(O)c(NC(=O)c4ccc(O)c(CC=C(C)C)c4)c(=O)oc3c2C)OC1(C)C"
  LABEL: "inactive"
- COMPOUND: "O=C(O)c1cc2ccccc2c(Cc2cc3ccccc3c(C(=O)O)c2O)c1O (tested in a mixture with another compound)"
  LABEL: "inactive"
- COMPOUND: "CC(=O)OCC(=O)[C@@]1(O)[C@H](C)C[C@@H]2[C@H]3CCC4=CC(=O)C=C[C@]4(C)[C@]3(F)[C@@H](O)C[C@@]21C"
  LABEL: "inactive"
- COMPOUND: "C[C@]12CC[C@@H]3C(=CCc4cc(O)ccc43)[C@@H]1CCC2=O"
  LABEL: "active"
- COMPOUND: "C[C@H](C(=O)O)c1cccc(Oc2ccccc2)c1"
  LABEL: "inactive"
- COMPOUND: "CCC(=O)O[C@@]1(C(=O)SCF)[C@@H](C)C[C@H]2[C@@H]3C[C@@H](F)C4=CC(=O)C=C[C@@]4(C)[C@]3(F)[C@@H](O)C[C@]21C"
  LABEL: "inactive"
- COMPOUND: "COc1cc2c(cc1OC)-c1cc3ccc(OC)c(OC)c3c[n+]1CC2"
  LABEL: "inactive"
- COMPOUND: "CC(C)(N=NC(C)(C)C(=N)N)C(=N)N"
  LABEL: "inactive"
